Values compiled from PubChem BioAssay (NCATS).

List of Potency values.
system: HEK293; assay: Cytotoxic Profiling of Annotated Libraries Using Quantitative High-Throughput Screening (AID 1296008); conditions: Five cell lines viability, CellTiter-Glo ATP luminescence, 48-72 h; also: potency is read from the fitted curve at half-maximal effect; nearly all actives have a fitted effect of over 60% in size
Results filed as inconclusive are left out. Activity calls are given as the source filed them. Calls follow the shape of the dose curve; as a rule, active = well fitted inhibition curve with a large enough effect; inconclusive = small, poorly fitted or top-dose-only effect; inactive = flat fitted curve, though single readings scatter.

CC[C@]1(O)CC2CN(CCc3c([nH]c4ccccc34)[C@@](C(=O)OC)(c3cc4c(cc3OC)N(C=O)[C@H]3[C@@](O)(C(=O)OC)[C@H](OC(C)=O)[C@]5(CC)C=CCN6CC[C@]43[C@@H]65)C2)C1 (stereo partly drawn) = 32.1 nM (active)
COc1ccc(-c2ccc3c(N4CCOCC4)nc(N4CC(C)OC(C)C4)nc3n2)cc1CO (stereo not drawn) = 1160 nM (active)
COC(=O)N[C@@H](C)CNc1nccc(-c2cn(C(C)C)nc2-c2cc(Cl)cc(NS(C)(=O)=O)c2F)n1 = 11600 nM (active)

Okay, now this compound:
Identify measured Potency associated with "CNC(=O)c1ccccc1Nc1nc(Nc2ccc(N3CCNCC3)cc2)ncc1Cl"
65.1 nM (active)
